Target: FGF-2 (Homo sapiens, UniProt P09038)
Sequence (P09038 143-288): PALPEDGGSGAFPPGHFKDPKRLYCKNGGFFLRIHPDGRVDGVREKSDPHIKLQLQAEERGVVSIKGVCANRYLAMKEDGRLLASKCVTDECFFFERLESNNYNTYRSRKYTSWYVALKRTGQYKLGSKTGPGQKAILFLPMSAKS
Test: GF binding to recombinant laminin LG domain protein and synthesized laminin HBD peptides (ELISA)
Design: All growth factors (GFs) and chemokines were purchased in their mature forms; purchased PeproTech; host or cells: Escherichia coli
Conditions: plate coated with LG domain protein or peptide, 1 μg/mL GF, vs BSA-coated wells
test-readout: binding to FGF-2

1. RLVFALGTDGKKLRIKSKEKCNDGK [α33043-3067, laminin α3 chain LG4-derived peptide, 25 aa] : bound
2. RQRSRPGRWHKVSVRWEKNR [α53417-3436, laminin α5 chain LG4-derived peptide, 20 aa] : bound
3. PLFLLHKKGKNLSKPKASQNKKGGKSK [α41408-1434, laminin α4 chain linker peptide, 27 aa] : bound

====

System: syndecan-1, syndecan-2, syndecan-3, syndecan-4
Test: Recombinant syndecan binding to synthesized laminin HBD peptides (ELISA)
Parameters: species or system human
Conditions: ELISA; peptide-coated plate, 1 μg/mL syndecan
Procedure: ELISA tests were performed as described above. In brief, ELISA plates were coated with 1 μg/mL laminin peptide (sequences are described in Table 1, chemically synthesized by Genscript) in PBS for 2 hrs at 37° C. 1 μg/mL of BSA served as non-binding protein control. […] Bound GF was detected with anti-histidine tag antibody (1:1000 dilution, BioLegend).
test-readout: binding to recombinant syndecans (syndecan 1-4)

1) RLVFALGTDGKKLRIKSKEKCNDGK [α33043-3067, laminin α3 chain LG4-derived peptide, 25 aa] : significant binding
2) TLFLAHGRLVYMFNVGHKKLKIR [α41521-1543, laminin α4 chain LG4-derived peptide, 23 aa] : significant binding
3) ARKASRRSRQPARH [α53312-3325, laminin α5 chain linker peptide, 14 aa] : weak binding
4) RQRSRPGRWHKVSVRWEKNR [α53417-3436, laminin α5 chain LG4-derived peptide, 20 aa] : significant binding
5) PPFLMLLKGSTRFNKTKTFR [α32932-2951, laminin α3 chain LG3-LG4 linker peptide, 20 aa] : weak binding
6) KNSFMALYLSKGR [α33031-3043, laminin α3 chain LG4-derived peptide, 13 aa] : weak binding
7) TPGLGPRGLQATARKASRRSRQPARHPACML [α53300-3330, laminin α5 chain linker peptide, 31 aa] : significant binding
8) PLFLLHKKGKNLSKPKASQNKKGGKSK [α41408-1434, laminin α4 chain linker peptide, 27 aa] : significant binding

====

Target: PlGF-2 (Homo sapiens, UniProt P49763)
Sequence (P49763 19-170 isoform P49763-3 limits assumed): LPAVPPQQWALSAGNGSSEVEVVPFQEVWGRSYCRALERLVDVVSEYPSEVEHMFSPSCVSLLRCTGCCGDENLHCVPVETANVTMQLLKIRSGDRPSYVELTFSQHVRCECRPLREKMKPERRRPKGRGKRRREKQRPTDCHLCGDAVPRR
Experiment: GF binding to recombinant laminin LG domain protein and synthesized laminin HBD peptides (ELISA)
Set-up: All growth factors (GFs) and chemokines were purchased in their mature forms; purchased PeproTech; host or cells: Escherichia coli
Details: plate coated with LG domain protein or peptide, 1 μg/mL GF, vs BSA-coated wells
Procedure: ELISA tests were performed as described above. […] Bound GF was detected with biotinylated antibodies for human VEGF, PlGF, PDGF-BB, or FGF-2 (R&D Systems). The antibodies were detected by streptavidin-HRP (R&D Systems).
test-readout: binding to PlGF-2

1) RLVFALGTDGKKLRIKSKEKCNDGK [α33043-3067, laminin α3 chain LG4-derived peptide, 25 aa] : bound
2) RQRSRPGRWHKVSVRWEKNR [α53417-3436, laminin α5 chain LG4-derived peptide, 20 aa] : bound
3) PLFLLHKKGKNLSKPKASQNKKGGKSK [α41408-1434, laminin α4 chain linker peptide, 27 aa] : bound

====

Test system: GFs
Assay: GF binding to synthesized laminin peptides (ELISA), all tested GFs together
Parameters: species or system human; key: ++ indicates high affinities; + indicates medium/low affinities
Details: summary Table 2
test-readout: Interaction with GFs

1) KNSFMALYLSKGR [α33031-3043, laminin α3 chain LG4-derived peptide, 13 aa] : +
2) TLPDVGLELEVR [α53539-3550, laminin α5 chain LG5-derived peptide, 12 aa] : +
3) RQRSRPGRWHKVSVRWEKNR [α53417-3436, laminin α5 chain LG4-derived peptide, 20 aa] : ++
4) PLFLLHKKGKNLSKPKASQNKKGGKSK [α41408-1434, laminin α4 chain linker peptide, 27 aa] : ++

====

Tested on: GFs
Test: GF binding to synthesized laminin peptides (ELISA), all tested GFs together
Set-up: species or system human; key: ++ indicates high affinities; + indicates medium/low affinities
Conditions: summary Table 2
Procedure: ELISA tests were performed as described above. […] Bound GF was detected with biotinylated antibodies for human VEGF, PlGF, PDGF-BB, or FGF-2 (R&D Systems). The antibodies were detected by streptavidin-HRP (R&D Systems).
test-readout: Interaction with GFs

1. PPFLMLLKGSTRFNKTKTFR [α32932-2951, laminin α3 chain LG3-LG4 linker peptide, 20 aa] : +
2. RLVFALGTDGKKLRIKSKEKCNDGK [α33043-3067, laminin α3 chain LG4-derived peptide, 25 aa] : ++
3. TPGLGPRGLQATARKASRRSRQPARHPACML [α53300-3330, laminin α5 chain linker peptide, 31 aa] : +
4. TLFLAHGRLVYMFNVGHKKLKIR [α41521-1543, laminin α4 chain LG4-derived peptide, 23 aa] : +

====

Test system: syndecan-1, syndecan-2, syndecan-3, syndecan-4
Test: Recombinant syndecan binding to synthesized laminin HBD peptides (ELISA)
Set-up: species or system human; key: ++ indicates high affinities; + indicates medium/low affinities
Conditions: summary Table 2
test-readout: Interaction with Syndecans

1) ARKASRRSRQPARH [α53312-3325, laminin α5 chain linker peptide, 14 aa] : +
2) PPFLMLLKGSTRFNKTKTFR [α32932-2951, laminin α3 chain LG3-LG4 linker peptide, 20 aa] : +
3) TLFLAHGRLVYMFNVGHKKLKIR [α41521-1543, laminin α4 chain LG4-derived peptide, 23 aa] : ++
4) TPGLGPRGLQATARKASRRSRQPARHPACML [α53300-3330, laminin α5 chain linker peptide, 31 aa] : ++

====

Biological target: PDGF-BB (Homo sapiens, UniProt P01127)
Construct: All growth factors (GFs) and chemokines were purchased in their mature forms; purchased PeproTech; host or cells: Escherichia coli
Sequence (P01127 82-190 limits assumed): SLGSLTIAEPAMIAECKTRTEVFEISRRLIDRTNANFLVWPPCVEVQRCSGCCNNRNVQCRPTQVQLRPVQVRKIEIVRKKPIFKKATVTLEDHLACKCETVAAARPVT
Assay: GF binding to recombinant laminin LG domain protein and synthesized laminin HBD peptides (ELISA)
Conditions: plate coated with LG domain protein or peptide, 1 μg/mL GF, vs BSA-coated wells
Protocol: ELISA tests were performed as described above. […] Bound GF was detected with biotinylated antibodies for human VEGF, PlGF, PDGF-BB, or FGF-2 (R&D Systems). The antibodies were detected by streptavidin-HRP (R&D Systems).
test-readout: binding to PDGF-BB

1) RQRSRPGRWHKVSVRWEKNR [α53417-3436, laminin α5 chain LG4-derived peptide, 20 aa] : bound
2) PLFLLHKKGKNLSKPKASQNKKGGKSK [α41408-1434, laminin α4 chain linker peptide, 27 aa] : bound
3) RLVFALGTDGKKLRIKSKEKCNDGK [α33043-3067, laminin α3 chain LG4-derived peptide, 25 aa] : bound

====

Biological target: VEGF-A165 (Homo sapiens, UniProt P15692)
Construct: All growth factors (GFs) and chemokines were purchased in their mature forms; purchased PeproTech; host or cells: Escherichia coli
Sequence (P15692 27-191 isoform P15692-4 limits assumed): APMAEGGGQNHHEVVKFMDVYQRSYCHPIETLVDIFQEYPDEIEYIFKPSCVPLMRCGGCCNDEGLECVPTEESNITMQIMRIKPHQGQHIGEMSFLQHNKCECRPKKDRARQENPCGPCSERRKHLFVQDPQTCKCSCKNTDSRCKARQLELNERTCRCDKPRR
Assay: GF binding to recombinant laminin LG domain protein and synthesized laminin HBD peptides (ELISA)
Settings: plate coated with LG domain protein or peptide, 1 μg/mL GF, vs BSA-coated wells
test-readout: binding to VEGF-A165

1. TPGLGPRGLQATARKASRRSRQPARHPACML [α53300-3330, laminin α5 chain linker peptide, 31 aa] : preferentially bound
2. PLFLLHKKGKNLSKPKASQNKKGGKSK [α41408-1434, laminin α4 chain linker peptide, 27 aa] : bound
3. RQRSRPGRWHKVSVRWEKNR [α53417-3436, laminin α5 chain LG4-derived peptide, 20 aa] : bound
4. KNSFMALYLSKGR [α33031-3043, laminin α3 chain LG4-derived peptide, 13 aa] : bound
5. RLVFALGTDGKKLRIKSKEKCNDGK [α33043-3067, laminin α3 chain LG4-derived peptide, 25 aa] : bound
6. PPFLMLLKGSTRFNKTKTFR [α32932-2951, laminin α3 chain LG3-LG4 linker peptide, 20 aa] : preferentially bound
